FYI, the data here is from patent US6518423B1.

Parameter: melting point. Scope: all listed entries.

Consider the following illustrative entries.
* c1cnc2c(n1)Nc1cc(Cn3cncn3)ccc1S2 | 223 to 226 °C
* CN1c2ccc(C=O)cc2Nc2nccnc21 | 215 to 219 °C
* N#C/N=C(/Cc1ccc2c(c1)Nc1nccnc1S2)NCc1ccccn1 | 195 to 196 °C
* NC(=O)C1CCCN1Cc1ccc2c(c1)Nc1nccnc1S2 (stereo not drawn) | 194 to 197 °C
* O=C(O)C1=CCCN(Cc2ccc3c(c2)Nc2nccnc2S3)C1 | 178 to 180 °C
* O=C(O)CCCN1CCC(NCc2ccc3c(c2)Nc2nccnc2S3)CC1 | 121 to 124 °C
* CS(=O)(=O)Nc1ccc(-c2cn(Cc3ccc4c(c3)Nc3nccnc3S4)cn2)cc1 | 253 to 255 °C
* CC(CCC1CCN(Cc2cnc3c(c2)Nc2nccnc2S3)CC1)C(=O)O (stereo not drawn) | 115 to 118 °C
* CN(Cc1ccc(S(N)(=O)=O)cc1)Cc1ccc2c(c1)Nc1nccnc1S2 | 181 to 184 °C
* CS(=O)(=O)NCCc1cn(Cc2ccc3c(c2)Nc2nccnc2S3)cn1 | 173 to 176 °C

Exam item: Let me know recorded melting point for COCOc1ccc2c(c1)Nc1nccnc1N2C , thanks.
Marked response: 197 to 198 °C

Exam item: Let me know recorded melting point for COCN1c2cc(CCl)ccc2Sc2nccnc21 , thanks.
Marked response: 125 to 126 °C

----------
Parameter: melting point. Scope: all listed entries.

Consider the following illustrative entries.
- CC(CCC1CCN(Cc2ccc3c(c2)Nc2ncncc2S3)CC1)C(=O)O (stereo not drawn): 219 to 220 °C
- CS(=O)(=O)N1CCC(N(CC(=O)O)Cc2ccc3c(c2)Nc2nccnc2S3)CC1: 185 to 189 °C
- OC1CC2CN(Cc3ccc4c(c3)Nc3nccnc3S4)CC2C1 (stereo not drawn): 192 to 195 °C
- CN(C)S(=O)(=O)NC1CN=C(Cc2ccc3c(c2)Nc2nccnc2S3)NC1 (stereo not drawn): 251 to 254 °C
- Cc1nc2ncncc2n1Cc1ccc2c(c1)Nc1nccnc1S2: > 275 °C

With those in mind, consider the next compound.
Exam item: Let me know recorded melting point for OC(c1ccc2c(c1)Nc1nccnc1S2)c1nccs1 (stereo not drawn) , thanks.
Marked response: 110 to 114 °C

----------
Parameter: melting point. Scope: all listed entries.

* CC(C)(O)C(=O)CC(SCC(=O)O)C1CCN(Cc2ccc3c(c2)Nc2nccnc2S3)CC1 (centres unmarked) | 130 to 132 °C
* O=C(O)CCC1C2CCCC1CN(Cc1ccc3c(c1)Nc1nccnc1S3)C2 (centres unmarked) | 223 to 225 °C
* c1cn(Cc2ccc3c(c2)Nc2nccnc2O3)cn1 | 252 to 255 °C

Exam item: Let me know recorded melting point for CC(C(=O)O)c1ccc(NCc2ccc3c(c2)Nc2nccnc2S3)cc1.Cl (centres unmarked) , thanks.
Marked response: 228 to 233 °C

Exam item: Let me know recorded melting point for O=C(O)CCCCCCCCCCSc1ncnc2ncn(Cc3ccc4c(c3)Nc3nccnc3S4)c12 , thanks.
Marked response: 166 to 170 °C

----------
MEASUREMENT_KIND: melting point

Consider the following illustrative entries.
* O=C(O)/C=C/c1nccn1Cc1ccc2c(c1)Nc1nccnc1S2 | 243 to 244 °C
* CN(Cc1ccc2c(c1)Nc1nccnc1S2)c1ccccc1 | 172 to 174 °C

Exam item: Let me know recorded melting point for O=C(CN1CCC(C(=O)O)CC1)NCc1ccc2c(c1)Nc1nccnc1S2 , thanks.
Marked response: 226 to 230 °C (dec.)

Exam item: Let me know recorded melting point for CCc1cc(NCc2ccc3c(c2)Nc2nccnc2S3)ccn1 , thanks.
Marked response: 148 to 152 °C

Exam item: Let me know recorded melting point for O=c1ccn(Cc2ccc3c(c2)Nc2nccnc2S3)c(=O)[nH]1 , thanks.
Marked response: 269 to 271 °C

Exam item: Let me know recorded melting point for CC(=O)N1CCN(C(=N)Cc2ccc3c(c2)Nc2nccnc2S3)CC1.Cl , thanks.
Marked response: 268 to 269 °C

Exam item: Let me know recorded melting point for O=C(O)CSCC1CCN(Cc2ccc3c(c2)Nc2nccnc2S3)CC1 , thanks.
Marked response: 110 to 113 °C

Exam item: Let me know recorded melting point for c1ccc2c(c1)nnn2Cc1ccc2c(c1)Nc1nccnc1S2 , thanks.
Marked response: 251 to 258 °C

Exam item: Let me know recorded melting point for O=C(O)CC1C2CC(c3ccccc3)CC1CN(Cc1ccc3c(c1)Nc1nccnc1S3)C2 (centres unmarked) [Example 87] , thanks.
Marked response: 128 to 131 °C

Exam item: Let me know recorded melting point for O=C(O)C1CCN(Cc2ccc3c(c2)Nc2nccnc2O3)CC1 , thanks.
Marked response: 242 to 244 °C

Exam item: Let me know recorded melting point for c1cnc2c(n1)Nc1cc(CN3CCc4ccoc4C3)ccc1S2 , thanks.
Marked response: 168 to 172 °C

Exam item: Let me know recorded melting point for O=C(O)Cc1ccccc1C1CCN(Cc2ccc3c(c2)Nc2nccnc2S3)CC1 , thanks.
Marked response: 152 to 154 °C

----------
Parameter: melting point. Scope: all listed entries.

* CS(=O)(=O)/N=C/N1CCN(Cc2ccc3c(c2)Nc2nccnc2S3)CC1 | 212 to 214 °C
* OCC(O)C1CCN(Cc2ccc3c(c2)Nc2nccnc2S3)CC1 (centres unmarked) | 182 to 185 °C
* N#CN=C(Cc1ccc2c(c1)Nc1nccnc1S2)NCCO | 268 to 270 °C

Exam item: Let me know recorded melting point for COC1CCN(Cc2ccc3c(c2)Nc2nccnc2S3)CC1 , thanks.
Marked response: 172 to 174 °C

Exam item: Let me know recorded melting point for COC(C)(C)CC/C(=C\c1ncn(Cc2ccc3c(c2)Nc2nccnc2S3)c1C)C(=O)O , thanks.
Marked response: 202 to 204 °C

Exam item: Let me know recorded melting point for Cc1c(C(N)=O)ncn1Cc1ccc2c(c1)Nc1nccnc1S2 , thanks.
Marked response: > 298 °C

Exam item: Let me know recorded melting point for CN1c2ccc(C(O)C#Cc3ccccc3)cc2Nc2nccnc21 (centres unmarked) , thanks.
Marked response: 204 to 208 °C

Exam item: Let me know recorded melting point for O=C(O)C(F)=C1CCN(Cc2ccc3c(c2)Nc2nccnc2S3)CC1 , thanks.
Marked response: 167 to 173 °C

Exam item: Let me know recorded melting point for CN1c2ccc(C#N)cc2Nc2nccnc21 , thanks.
Marked response: 274 to 275 °C

Exam item: Let me know recorded melting point for O=C(O)CCN1CCC(NCc2ccc3c(c2)Nc2nccnc2S3)CC1 , thanks.
Marked response: 130 to 134 °C

Exam item: Let me know recorded melting point for O=C(O)C=C1CC2(CCN(Cc3ccc4c(c3)Nc3nccnc3S4)CC2)C1 , thanks.
Marked response: 238 to 241 °C

----------
MEASUREMENT_KIND: melting point

Consider the following illustrative entries.
- Nc1ncnc2c1ncn2Cc1ccc2c(c1)Nc1nccnc1S2: 290 °C
- CCOC(=O)CSc1ccc(NCc2ccc3c(c2)Nc2nccnc2S3)cn1: 118 to 122 °C
- Cl.N=C(N)c1ccnc2c1Sc1ccccc1N2: > 280 °C

Exam item: Let me know recorded melting point for CCCNC(=O)Cc1ccc2c(c1)Nc1nccnc1S2 , thanks.
Marked response: 212 °C (dec.)

Exam item: Let me know recorded melting point for CN(Cc1ccc(C(=O)O)cc1)Cc1ccc2c(c1)Nc1nccnc1S2 , thanks.
Marked response: 241 to 244 °C

Exam item: Let me know recorded melting point for c1csc(Cc2ccc3c(c2)Nc2nccnc2S3)n1 , thanks.
Marked response: 160 to 161 °C

Exam item: Let me know recorded melting point for CS(=O)(=O)NCCN1c2ccccc2Nc2nccnc21 , thanks.
Marked response: 218 to 222 °C

----------
Parameter: melting point. Scope: all listed entries.

Consider the following illustrative entries.
• OC(c1ccccn1)c1nccn1Cc1ccc2c(c1)Nc1nccnc1S2 (stereo not drawn) = 95 to 98 °C
• O=C(O)c1ccc(Cc2nccn2Cc2ccc3c(c2)Nc2nccnc2S3)cc1 = 185 to 188 °C
• COCN1c2cc(C(=O)OC)ccc2Sc2nccnc21 = 151 to 152 °C
• CC1(C(=O)O)C2CCCC1CN(Cc1ccc3c(c1)Nc1nccnc1S3)C2 (stereo not drawn) [Example 116] = 183 to 185 °C
• c1ccc(COCc2ccc3c(c2)Nc2nccnc2S3)cc1 = 118 to 120 °C

Exam item: Let me know recorded melting point for CN(C)CCCNC(=O)Cc1ccc2c(c1)Nc1nccnc1S2 , thanks.
Marked response: 145 to 148 °C

----------
Parameter: melting point. Scope: all listed entries.

Consider the following illustrative entries.
- CN1c2ccc(C(N)c3ccccn3)cc2Nc2nccnc21 (stereo not drawn): > 275 °C
- CC(CCC1CCN(CC(O)c2ccc3c(c2)Nc2nccnc2S3)CC1)C(=O)O (stereo not drawn): 239 to 242 °C
- CC(=O)c1ncnc2ncn(Cc3ccc4c(c3)Nc3nccnc3S4)c12: 266 to 268 °C
- N#CN=C(Cc1ccc2c(c1)Nc1nccnc1S2)NCCCC(=O)O: 217 to 218 °C (dec.)

Exam item: Let me know recorded melting point for c1cnc2c(n1)Nc1cc(Cn3ncnn3)ccc1S2 , thanks.
Marked response: 206 to 208 °C

Exam item: Let me know recorded melting point for CCCCNC(=O)OCc1ccc2c(c1)Nc1nccnc1S2 , thanks.
Marked response: 169 to 171 °C
